I'd appreciate it if you could supply log10 of Ki values for the items below.
SYSTEM TESTED: UniProt P97639
ASSAY NAME: Radioligand binding assay at cloned rat MCH1 receptor ([3H] Compound A)
Set-up: host or cells: Peak rapid 293 (Peakr293) cells, transient calcium phosphate transfection, membranes
CONDITION CONTEXT: cloned rat MCH1 receptor; 0.08 nM [3H] Compound A; Peakr293 cell membranes; read-out: Ki (nM) rMCH1
Scale: log10; quantity: Ki; unit before log: nM

I'd like to know its log10 of Ki. The compound in question is CC(C)C(=O)Nc1cccc(C2CCN(Cc3c(-c4ccccc4N)[nH]c4ccccc34)CC2)c1
2.06

Could you share which log10 of Ki value was measured for CC(C)C(=O)Nc1cccc(C2CCN(CCNC(=O)C(c3ccccc3)c3ccccc3)CC2)c1 ?
0.23

Using the record for CC(C)C(=O)Nc1cccc(C2CCN(CCCSc3ccccc3)CC2)c1 , report its log10 of Ki.
1.94

Form field: reported log10 of Ki of CC(C)C(=O)Nc1cccc(C2CCN(Cc3c[nH]c4c(-c5ccc6ccccc6c5)cccc34)CC2)c1
2.46

Could you tell me which log10 of Ki is on file for CC(C)C(=O)Nc1cccc(C2CCN(CCCCCCNC(=O)Nc3cccc4ccccc34)CC2)c1 ?
2.06

I'd like to know its log10 of Ki. The compound in question is CC(C)C(=O)Nc1cccc(C2CCN(CCCc3c(-c4cccc(Br)c4)[nH]c4c3ccc3ccccc34)CC2)c1
1.38

* * *

SYSTEM TESTED: rat MCH-1 (Rattus norvegicus, UniProt P97639)
Sequence (P97639 whole entry): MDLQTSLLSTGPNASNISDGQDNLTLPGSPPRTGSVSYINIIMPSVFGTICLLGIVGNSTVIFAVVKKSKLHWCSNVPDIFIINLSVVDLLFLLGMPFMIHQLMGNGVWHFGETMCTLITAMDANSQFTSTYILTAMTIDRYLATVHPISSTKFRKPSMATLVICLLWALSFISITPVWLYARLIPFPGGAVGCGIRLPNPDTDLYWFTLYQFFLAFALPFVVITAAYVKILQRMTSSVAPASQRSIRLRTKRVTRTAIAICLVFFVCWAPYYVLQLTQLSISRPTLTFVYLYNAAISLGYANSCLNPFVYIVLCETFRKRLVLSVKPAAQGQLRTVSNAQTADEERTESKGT
ASSAY NAME: Radioligand binding assay at cloned rat MCH1 receptor ([3H] Compound A)
Design: host or cells: Peak rapid 293 (Peakr293) cells, transient calcium phosphate transfection, membranes
CONDITION CONTEXT: cloned rat MCH1 receptor, membranes from Peakr293 cells, 0.08 nM [3H] Compound A; read-out: Ki (nM) rMCH1
Hi! Just check whether Ki is below 300 nM. Below gives class 1, equal or above gives class 0.

Please check: Ki for CC(C)CCOc1ccc2ccccc2c1CN1CCC(c2cccc(NC(=O)C(C)C)c2)CC1 [Example 188] , strictly under 300 nM or not?
class 0

Determine if Cc1ccccc1OC(CCN1CCC(c2cccc(NC(=O)C(C)C)c2)CC1)c1ccc(Br)cc1 (stereo not drawn) [Example 133] shows Ki strictly lower than 300 nM.
class 1

For this compound, is Ki lower than 300 nM? CC(=O)c1cccc(O[C@H](CN2CCC(c3cccc(NC(=O)C(C)C)c3)CC2)c2ccccc2)c1 [Example 333]
class 0

# TODO verify Ki < 300 nM strictly for this compound: Cc1c(CN2CCC(c3cccc(NC(=O)C(C)C)c3)CC2)c(=O)n(-c2ccccc2)n1C [Example 228]
class 0

Given the entry CC(C)C(=O)Nc1cccc(C2CCN(CC[C@H](NC(=O)c3cccc(Cl)c3)c3ccccc3)CC2)c1 [Example 305] , would its reported Ki be below 300 nM?
class 1

Here's an entry: CC(C)C(=O)Nc1cccc(C2CCN(CC[C@H](NC(=O)c3ccc(Oc4cc(Cl)cc(Cl)c4)[nH]3)c3ccccc3)CC2)c1 [Example 318] . Is its Ki below 300 nM?
class 1

* * *

SYSTEM TESTED: rat MCH-1 (Rattus norvegicus)
ASSAY NAME: Radioligand binding assay at cloned rat MCH1 receptor ([3H] Compound A)
Design: host or cells: Peak rapid 293 (Peakr293) cells, transient calcium phosphate transfection, membranes
CONDITION CONTEXT: cloned rat MCH1 receptor; 0.08 nM [3H] Compound A; Peakr293 cell membranes; read-out: Ki (nM) rMCH1
So I've got a bunch of molecules here, and I need their Ki values.
Give the value, in units of nM, as a plain number.

Value lookup for Ki; key = Cc1ccc2[nH]c(-c3ccccc3)c(CN3CCC(c4cccc(NC(=O)C(C)C)c4)CC3)c2c1
552

If you can, please state the reported Ki value of CC(C)C(=O)Nc1cccc(C2CCN(CCCc3c(-c4ccccc4I)[nH]c4ccc(OC(F)(F)F)cc34)CC2)c1 .
19.7

// Ki lookup, key: Cc1ccccc1-n1cc(CN2CCC(c3cccc(NC(=O)C(C)C)c3)CC2)c2ccccc21
12.7

Look at this molecule and give its reported Ki. CC(C)C(=O)Nc1cccc(C2CCN(CC[C@H](NS(=O)(=O)c3cccc4c(N(C)C)cccc34)c3ccccc3)CC2)c1
67

Given the molecule COc1cccc2c(CCN3CCC(c4cccc(NC(=O)C(C)C)c4)CC3)c[nH]c12 , what is its reported Ki?
83.9

Record request: Ki value, item CC(C)C(=O)Nc1cccc(C2CCN(CCCCCN3C(=O)OC[C@@H]3c3ccc(F)c(F)c3)CC2)c1
87.1

For the molecule CC(C)C(=O)Nc1cccc(C2CCN(Cc3cc4ccccc4n3C)CC2)c1 , what Ki is on record?
228

What does the data say about its Ki? Entry: CC(C)C(=O)Nc1cccc(C2CCN(CCCCC(Oc3ccc(F)cc3)c3ccc(Cl)cc3)CC2)c1 (stereo not shown)
1.3

Entry CCC(=O)Nc1ccc(C2CCN(CCCc3c(-c4ccccc4)n(-c4ccccc4)c4ccccc34)CC2)cc1 has what Ki?
475

What measured Ki goes with CC(C)C(=O)Nc1cccc(C2CCN(Cc3c[nH]c4c([N+](=O)[O-])cccc34)CC2)c1 ?
179

Field request: Ki | item: Cc1cccc(-n2ccc3c(CN4CCC(c5cccc(NC(=O)C(C)C)c5)CC4)cccc32)c1
321

Can you look up the measured Ki of CC(C)C(=O)Nc1cccc(C2CCN(CCCc3c(-c4cccc(I)c4)n(-c4ccccc4)c4ccccc34)CC2)c1 for me?
214

// query Ki value for entry Cc1ccc2[nH]c(-c3ccccc3Cl)c(CCCN3CCC(c4cccc(NC(=O)C(C)C)c4)CC3)c2c1
5.7

GET /values?readout=Ki&item= CCC(=O)Nc1cccc(C2CCN(CCCCC(=O)c3ccccc3C(F)(F)F)CC2)c1
62.3

Record request: Ki value, item CC(C)C(=O)Nc1cccc(C2CCN(CCCc3c(-c4cccc(F)c4)n(-c4ccccc4)c4ccccc34)CC2)c1
27

Fill in: Ki of CC(C)C(=O)Nc1cccc(C2CCN(CCCCCCNC(=O)c3ccc4ccccc4c3)CC2)c1 is ___
161

Requested field: Ki. Item: CCC(=O)Nc1cccc(C2CCN(CCCC(=O)c3ccc(F)cc3)CC2)c1
28.1

I am curious: what Ki value has been reported for CC(C)C(=O)Nc1cccc(C2CCN(Cc3ccc4c(ccn4-c4ccccc4Cl)c3)CC2)c1 ?
9.4

Field request: Ki | item: CC(C)C(=O)Nc1cccc(C2CCN(CCCCNC(=O)c3ccc(F)c(F)c3)CC2)c1
12

Endpoint output: Ki of CC(C)C(=O)Nc1cccc(C2CCN(CCCc3c(-c4ccccc4Br)[nH]c4ccccc34)CC2)c1 . Value?
4.9

What does the data say about its Ki? Entry: CC(C)C(=O)Nc1cccc(C2CCN(CC[C@H](NC(=O)Nc3ccc(Oc4ccccc4)cc3)c3ccccc3)CC2)c1
36.8

Please look up its Ki: CC(C)C(=O)Nc1cccc(C2CCN(CCCCC(=O)c3ccc(Br)cc3)CC2)c1
43.9

If you can, please state the reported Ki value of CC(C)C(=O)Nc1cccc(C2CCN(Cc3cccc4c3ccn4-c3ccc(Cl)cc3)CC2)c1 .
306

Which Ki value is on record for Cc1ccccc1NC(=S)NCCCN1CCC(c2cccc(NC(=O)C(C)C)c2)CC1 ?
210

Reported Ki for COc1cccc2c(CCN3CCC(c4cccc(NC(=O)C(C)C)c4)CC3)c(-c3ccccc3)[nH]c12 : what is it?
43.9

* * *

SYSTEM TESTED: UniProtKB P97639
ASSAY NAME: Radioligand binding assay at cloned rat MCH1 receptor ([3H] Compound A)
Parameters: host or cells: Peak rapid 293 (Peakr293) cells, transient calcium phosphate transfection, membranes
CONDITION CONTEXT: cloned rat MCH1 receptor, membranes from Peakr293 cells, 0.08 nM [3H] Compound A; read-out: Ki (nM) rMCH1
Records here are stratified by Ki; strata: lo: < 20 nM; mid: ≥ 20 nM and < 90 nM; hi: ≥ 90 nM

Exam item: assign CC(C)C(=O)Nc1cccc(C2CCN(CCC(O)c3ccc4c(c3)CCC4)CC2)c1 (stereo not shown) to the correct category.
mid

Pick a category. Item: CC(C)C(=O)Nc1cccc(C2CCN(Cc3ccc4ccccc4n3)CC2)c1
hi

Band assignment needed for CC(=O)c1cccc(O[C@@H](CCN2CCC(c3ccc(C)c(NC(=O)C(C)C)c3)CC2)c2ccccc2)c1 please.
hi

Which category fits this record: CC(C)C(=O)Nc1cccc(C2CCN(CCC(Oc3ccc(C(F)(F)F)cc3)c3ccc(Br)cc3)CC2)c1 (stereo not shown)
lo

Consider CC(=O)Nc1cccc(C2CCN(CCCNC(=O)N3C(=O)O[C@H](C)[C@@H]3c3ccc(F)c(F)c3)CC2)c1 . To which Ki class does it belong?
lo

Hi, small favor: classify COc1ccc(C(=O)CCN2CCC(c3cccc(NC(=O)C(C)C)c3)CC2)cc1 by its Ki when you get a moment.
mid

Kindly state the category for this compound: COc1ccc(C(CCN2CCC(c3cccc(NC(=O)C(C)C)c3)CC2)Oc2ccc(C(F)(F)F)cc2)cc1 (stereo not shown)
hi

Given CC(C)C(=O)Nc1cccc(C2CCN(Cc3ccc(N4CCCCC4)c([N+](=O)[O-])c3)CC2)c1 , name the class its Ki places it in.
mid

State the class of the compound shown: CC(C)C(=O)Nc1cccc(C2CCN(CCCCc3c(-c4ccccc4)n(-c4ccccc4)c4ccccc34)CC2)c1
lo

Please classify: CC(C)C(=O)Nc1cccc(C2CCN(CCC(Oc3ccc(-c4ccccc4)cc3)c3ccc(Br)cc3)CC2)c1 (stereo not shown)
hi

Dear colleague, I would appreciate it if you could identify the bin for Cc1ccc(C2CCN(CCCC(c3ccc(F)cc3)c3ccc(F)cc3)CC2)cc1NC(=O)C(C)C and reply at your convenience.
mid

Input COc1ccc(O[C@H](CCN2CCC(c3cccc(N(C)C(=O)C(C)C)c3)CC2)c2ccccc2)cc1OC ; output its category
mid

Which class is correct for the following compound? CC(C)C(=O)Nc1cccc(C2CCN(CCCNS(=O)(=O)c3ccc(Cl)c([N+](=O)[O-])c3)CC2)c1
lo

Where would CC(C)C(=O)Nc1cccc(C2CCN(CCC(Oc3ccc(C(F)(F)F)cc3)c3ccc4c(c3)CCC4)CC2)c1 (stereo not shown) land among the classes by reported Ki?
lo

The entry to classify is CC(C)C(=O)Nc1cccc(C2CCN(C[C@H](C)COc3cccc(Br)c3)CC2)c1 ; which class holds it?
hi

Which Ki category applies to CC(=O)c1cccc(OCCCCN2CCC(c3cccc(NC(=O)C(C)C)c3)CC2)c1 here?
hi

Given CC(C)C(=O)Nc1cccc(C2CCN(Cc3c[nH]nc3-c3cccs3)CC2)c1 , name the class its Ki places it in.
hi

Which category fits this record: CC(C)C(=O)Nc1cccc(C2CCN(CC[C@H](NC(=O)C(c3ccccc3)c3ccccc3)c3ccccc3)CC2)c1
lo

Sort CC(C)C(=O)Nc1cccc(C2CCN(CCC(=O)c3ccc(F)cc3)CC2)c1 into one of the categories.
hi

Which of the defined bands does the recorded Ki of CC(C)C(=O)Nc1cccc(C2CCN(Cc3cn(-c4ccccc4C(F)(F)F)c4ccccc34)CC2)c1 sit within?
mid

Into which bin does this compound go? CC(C)C(=O)Nc1cccc(C2CCN(CCC(Oc3ccc(Cl)cc3)c3ccc(Br)cc3)CC2)c1 (stereo not shown)
lo

Determine which band this compound sits in: Cc1onc(-c2c(Cl)cccc2Cl)c1C(=O)NCCCN1CCC(c2cccc(NC(=O)C(C)C)c2)CC1
mid

For Cc1onc(-c2c(F)cccc2Cl)c1C(=O)OCCCN1CCC(c2cccc(NC(=O)C(C)C)c2)CC1 , which Ki bin applies?
mid

Note: place this compound into its band. Item: CC(C)C(=O)Nc1cccc(C2CCN(Cc3ccc(-c4ccc(C(F)(F)F)cc4Cl)o3)CC2)c1
hi

Class label required: CC(C)C(=O)Nc1cccc(C2CCN(CCCCc3c(-c4ccccc4)[nH]c4ccc(OC(F)(F)F)cc34)CC2)c1
lo

State the band of Cc1ccccc1OC(CCN1CCC(c2cccc(NC(=O)C(C)C)c2)CC1)c1ccc(Cl)cc1 (stereo not shown)
lo
